molecular target: human GPR119 (Homo sapiens, UniProt Q8TDV5); test: β-Lactamase reporter functional assay (hGPR119 HEK293-CRE beta-lactamase cells); assay type: cell-based; set-up: host or cells: HEK293-CRE beta-lactamase; settings: hGPR119 HEK293-CRE beta-lactamase cells, 16 h incubation; each line a separate determination; read-out: Human B-lactamase Functional EC50
Each record is given Condition met if its reported EC50 is strictly below 100 nM. Records at or above 100 nM are given Condition not met.

Is 100 nM strictly greater than the compound's reported EC50? compound: CC(C)OC(=O)N1CCC(Oc2cc(N3CCc4cc(S(C)(=O)=O)cnc43)ncn2)CC1 [Example 14] Condition not met

Another compound to check: CC(C)OC(=O)N1C[C@H]2COC[C@@H](C1)[C@@H]2Oc1ncnc(N2CCc3cc(S(C)(=O)=O)ccc32)c1C#N [Example 4] Condition met

----------
Please provide measured pKi for the entries that follow.
Biological target: UniProtKB Q8TDV5
Test: GPR119 radioligand binding assay ([3H]-Compound A or B, membranes of HEK 293FT cells expressing hGPR119)
Parameters: host or cells: HEK293-CRE beta-lactamase
Details: calculated from IC50 with Cheng-Prusoff; each line a separate determination
Experimental: HEK 293FT cells (Invitrogen, Carlsbad, Calif.) were grown in a shake flask in 293Freestyle medium (Invitrogen) supplemented with 50 microg/mL neomycin and 10 mM HEPES (37C, 8% carbon dioxide, shaking). […] The frozen cells were thawed on ice and centrifuged at 700×g (1400 rpm) for 10 minutes at 4 degrees Celsius. […] The protein concentration was determined using the Pierce BCA protein assay kit (Pierce reagents A #23223 and B #23224). […]
Answers are plain numbers, as −log10 of the molar value.

In the examples that follow, each entry is paired with its recorded pKi.
COMPOUND	pKi
Cc1c(OC2CCN(C(=O)OC3(C)CC3)CC2F)ncnc1N1CCc2cc(C(N)=O)ccc21 (racemic)	5.77
Cc1c(O[C@@H]2CCN(C(=O)OC3(C)CC3)C[C@@H]2F)ncnc1N1CCc2nnccc21	6.21
Cc1c(O[C@@H]2[C@@H]3COC[C@H]2CN(C(=O)OC(C)C)C3)ncnc1N1CCc2ncccc21	7.13

Now for a further compound.
Record request: pKi value, item CC(C)OC(=O)N1CCC(Oc2cc(N3CCc4cc(S(=O)(=O)CCO)ccc43)ncn2)CC1 7.14

----------
Please provide measured Ki for the entries that follow.
target: human GPR119 (Homo sapiens, UniProt Q8TDV5); assay: GPR119 radioligand binding assay ([3H]-Compound A or B, membranes of HEK 293FT cells expressing hGPR119); settings: calculated from IC50 with Cheng-Prusoff; each line a separate determination
Give bare numbers, in nM.

SMI	TARGET_SYSTEM	ASSAY_ENDPOINT	READOUT_UNIT	ENDPOINT_RESULT
CC(C)OC(=O)N1CCC(Oc2cc(N3CCc4cc(C#N)ccc43)ncn2)CC1	human GPR119 (Homo sapiens, UniProt Q8TDV5)	Ki	nM	232

Now for a further compound.
Record request: Ki value, item COc1c(OC2CCN(C(=O)OC(C)C)CC2)ncnc1N1CCc2cc(S(C)(=O)=O)ccc21 285

----------
target: human GPR119 (Homo sapiens); test: cAMP HTRF functional assay (hGPR119 HEK-CRE beta-lactamase cells); assay type: cell-based; parameters: host or cells: HEK293-CRE beta-lactamase; conditions: percent of maximal activity relative to standard GPR119 agonist at 10 micromolar; read-out: Intrinsic Activity (Human cAMP)
Please provide measured Emax for the entries that follow.
Give your result as the value with the unit written after it.

In the examples that follow, each entry is paired with its recorded Emax.
MOLECULE	Emax
Cc1c(O[C@H]2CCN(C(=O)OC(C)(C)C)C[C@H]2F)ncnc1N1CCc2ncccc21 (racemic)	24.8%
CN(C)C(=O)c1ccc2c(n1)CCN2c1cc(OC2CCN(C(=O)OC3(C)CC3)CC2)ncn1	154%
Cc1c(OC2CCN(C(=O)OC3(C)CC3)CC2F)ncnc1N1CCc2cc(C(N)=O)ccc21 (racemic)	81.5%
CC(C)OC(=O)N1CCC(Oc2cc(N3CCc4ncccc43)ncn2)CC1	56%

// each listed molecule needs a value for Emax
1. CC(C)OC(=O)N1CCC(Oc2cc(N3CCc4cc(C(=O)N(C)C)ccc43)ncn2)CC1
2. Cc1c(O[C@@H]2[C@@H]3COC[C@H]2CN(C(=O)OC2(C)CC2)C3)ncnc1N1CCc2ncccc21
3. CC(C)OC(=O)N1C[C@H]2COC[C@@H](C1)[C@@H]2Oc1ncnc(N2CCc3cc(S(C)(=O)=O)ccc32)c1C#N
4. CC1(OC(=O)N2CC[C@H](Oc3cc(N4CCc5nc(C(N)=O)ccc54)ncn3)[C@H](F)C2)CC1 (racemic)
5. CC(C)(C)OC(=O)N1CCC(Oc2cc(N3CCc4cc(S(C)(=O)=O)ccc43)ncn2)C(F)C1 (racemic)
6. CC(C)OC(=O)N1CCC(Oc2cc(N3CCc4cc(S(=O)(=O)CCO)ccc43)ncn2)CC1
7. Cc1c(O[C@@H]2CCN(C(=O)OC(C)(C)C)C[C@@H]2F)ncnc1N1CCc2nnccc21
8. Cc1c(O[C@H]2CCN(C(=O)OC3(C)CC3)C[C@H]2F)ncnc1N1CCc2ncccc21 (racemic)

1: 97.5%; 2: 41.9%; 3: 36.2%; 4: 147%; 5: 92.5%; 6: 90.3%; 7: 28%; 8: 57.9%

----------
Target: human GPR119 (Homo sapiens)
Sequence (Q8TDV5 1-335): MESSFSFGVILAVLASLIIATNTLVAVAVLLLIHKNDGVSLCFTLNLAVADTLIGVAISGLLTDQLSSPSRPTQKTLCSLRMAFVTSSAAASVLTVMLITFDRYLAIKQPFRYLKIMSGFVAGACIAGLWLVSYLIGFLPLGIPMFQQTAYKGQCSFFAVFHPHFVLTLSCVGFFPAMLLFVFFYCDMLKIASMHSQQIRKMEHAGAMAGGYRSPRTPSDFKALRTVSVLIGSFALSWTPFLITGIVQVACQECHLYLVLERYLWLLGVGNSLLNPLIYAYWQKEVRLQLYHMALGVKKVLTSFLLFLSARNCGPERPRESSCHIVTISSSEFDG
Test: β-Arrestin PathHunter assay (U2OS hGPR119 β-arrestin cells)
Type: cell-based
Conditions: curve was extrapolated to 100% to calculate an EC50; read-out: Human B-arrestin Functional EC50
Method: GPR119 agonist activity was also determined with a cell-based assay utilizing DiscoverX PathHunter β-arrestin cell assay technology and their U2OS hGPR119 β-arrestin cell line (DiscoverX Cat # 93-0356C3). In this assay, agonist activation is determined by measuring agonist-induced interaction of β-arrestin with activated GPR119. A small, 42 amino acid enzyme fragment, called ProLink was appended to the C-terminus of GPR119. […]
ASSAY_ENDPOINT: EC50 (nM)
One number for each entry, in nM.

Record request: EC50 value, item CC(C)OC(=O)N1CCC(Oc2cc(N3CCc4ncccc43)ncn2)CC1 2570

----------
Please provide measured Emax for the entries that follow.
molecular target: human GPR119 (Homo sapiens, UniProt Q8TDV5); assay: β-Lactamase reporter functional assay (hGPR119 HEK293-CRE beta-lactamase cells); format: cell-based; design: host or cells: HEK293-CRE beta-lactamase; dose or concentration left out as unconfirmed; settings: percent of maximal activity relative to standard GPR119 agonist at 10 micromolar; read-out: Intrinsic Activity (Human B-lactamase)
Answers are plain numbers, in %.

In the examples that follow, each entry is paired with its recorded Emax.
COMPOUND	Emax (%)
Cc1c(OC2CCN(C(=O)OC(C)C)CC2)ncnc1N1CCc2ncccc21	92.6
CC(C)OC(=O)N1CCC(Oc2ncnc(N3CCc4cc(S(C)(=O)=O)ccc43)c2C#N)CC1	99.9
CC(C)OC(=O)N1CCC(Oc2cc(N3CCc4ncccc43)ncn2)CC1	110
Cc1c(O[C@H]2[C@@H]3COC[C@H]2CN(C(=O)OC(C)C)C3)ncnc1N1CCc2cc(S(C)(=O)=O)ccc21	100

// each listed compound needs a value for Emax
1. CC(C)OC(=O)N1CCC(Oc2cc(N3CCc4cc(C(=O)N(C)C)ccc43)ncn2)CC1
2. Cc1c(OC2CCN(C(=O)OC(C)C)CC2)ncnc1N1CCc2cc(S(C)(=O)=O)ccc21

100
100

// each listed compound needs a value for Emax
1. CC(C)OC(=O)N1C[C@H]2COC[C@@H](C1)[C@H]2Oc1ncnc(N2CCc3cc(S(C)(=O)=O)ccc32)c1C#N
2. CC(C)OC(=O)N1CCC(Oc2cc(N3CCc4cc(S(C)(=O)=O)cnc43)ncn2)CC1
3. COc1c(OC2CCN(C(=O)OC(C)C)CC2)ncnc1N1CCc2cc(S(C)(=O)=O)ccc21
4. CC(C)(C)OC(=O)N1CCC(Oc2cc(N3CCc4cc(S(C)(=O)=O)ccc43)ncn2)C(F)C1 (racemic)
5. CC(C)OC(=O)N1CCC(Oc2cc(N3CCc4cc(S(=O)(=O)CCO)ccc43)ncn2)CC1
6. CC(C)OC(=O)N1C[C@H]2COC[C@@H](C1)[C@H]2Oc1cc(N2CCc3cc(S(C)(=O)=O)ccc32)ncn1
7. Cc1c(O[C@@H]2[C@@H]3COC[C@H]2CN(C(=O)OC(C)C)C3)ncnc1N1CCc2cc(S(C)(=O)=O)ccc21
8. CC(C)OC(=O)N1CCC(Oc2cc(N3CCc4cc(C#N)ccc43)ncn2)CC1

1. 98.1
2. 98.1
3. 101
4. 107
5. 103
6. 107
7. 97.9
8. 90

// each listed compound needs a value for Emax
1. CC(C)OC(=O)N1C[C@H]2COC[C@@H](C1)[C@@H]2Oc1cc(N2CCc3cc(S(C)(=O)=O)ccc32)ncn1
2. CC(C)OC(=O)N1C[C@H]2COC[C@@H](C1)[C@@H]2Oc1ncnc(N2CCc3cc(S(C)(=O)=O)ccc32)c1C#N

1: 98; 2: 87.9
